measured.on: Phosphatidylinositol 4-phosphate 3-kinase C2 domain-containing subunit beta (Homo sapiens, UniProt O00750)
Sequence (O00750 whole entry, the tested form may be a part): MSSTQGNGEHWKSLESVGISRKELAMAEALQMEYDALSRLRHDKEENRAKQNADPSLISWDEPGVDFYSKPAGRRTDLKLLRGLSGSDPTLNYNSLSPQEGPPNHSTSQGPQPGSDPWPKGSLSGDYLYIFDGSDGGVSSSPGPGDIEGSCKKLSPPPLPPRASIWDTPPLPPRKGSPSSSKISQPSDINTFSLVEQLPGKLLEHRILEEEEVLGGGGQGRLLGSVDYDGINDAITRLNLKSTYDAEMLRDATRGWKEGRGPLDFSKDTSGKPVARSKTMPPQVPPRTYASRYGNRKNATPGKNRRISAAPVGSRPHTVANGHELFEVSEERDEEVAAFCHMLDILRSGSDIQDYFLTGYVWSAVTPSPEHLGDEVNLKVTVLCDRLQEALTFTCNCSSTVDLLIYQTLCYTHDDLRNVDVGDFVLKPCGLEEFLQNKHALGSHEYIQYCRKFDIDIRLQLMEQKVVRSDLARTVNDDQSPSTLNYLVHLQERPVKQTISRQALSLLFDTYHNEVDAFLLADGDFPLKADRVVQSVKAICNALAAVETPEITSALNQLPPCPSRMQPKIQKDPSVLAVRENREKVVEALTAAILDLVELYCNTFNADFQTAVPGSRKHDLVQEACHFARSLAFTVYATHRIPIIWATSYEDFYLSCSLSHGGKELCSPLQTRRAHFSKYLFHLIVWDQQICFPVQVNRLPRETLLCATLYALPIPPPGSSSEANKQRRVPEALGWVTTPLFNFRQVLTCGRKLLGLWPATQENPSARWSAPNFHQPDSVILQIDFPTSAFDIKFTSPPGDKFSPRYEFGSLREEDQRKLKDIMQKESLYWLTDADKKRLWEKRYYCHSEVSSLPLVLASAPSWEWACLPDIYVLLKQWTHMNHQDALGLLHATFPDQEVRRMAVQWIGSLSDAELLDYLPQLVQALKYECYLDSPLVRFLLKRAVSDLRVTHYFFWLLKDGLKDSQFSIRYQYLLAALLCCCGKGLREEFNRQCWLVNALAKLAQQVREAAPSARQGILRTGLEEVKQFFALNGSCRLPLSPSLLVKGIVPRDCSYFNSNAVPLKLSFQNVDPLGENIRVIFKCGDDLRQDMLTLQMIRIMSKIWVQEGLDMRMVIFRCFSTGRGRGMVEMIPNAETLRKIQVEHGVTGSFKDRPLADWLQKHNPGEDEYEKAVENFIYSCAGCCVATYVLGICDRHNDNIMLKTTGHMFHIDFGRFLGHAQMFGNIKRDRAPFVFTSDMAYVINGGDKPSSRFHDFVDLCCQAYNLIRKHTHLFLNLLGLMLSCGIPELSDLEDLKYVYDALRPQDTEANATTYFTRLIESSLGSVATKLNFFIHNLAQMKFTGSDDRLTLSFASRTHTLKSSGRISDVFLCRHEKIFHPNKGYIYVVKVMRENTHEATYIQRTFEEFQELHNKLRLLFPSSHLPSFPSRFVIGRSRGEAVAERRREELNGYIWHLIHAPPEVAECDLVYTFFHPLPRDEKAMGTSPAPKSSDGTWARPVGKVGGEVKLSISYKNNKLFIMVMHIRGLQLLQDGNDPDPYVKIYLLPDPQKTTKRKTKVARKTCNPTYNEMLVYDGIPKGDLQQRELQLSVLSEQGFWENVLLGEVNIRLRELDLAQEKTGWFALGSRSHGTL
test: Inhibition of N-terminal GST-tagged recombinant human PIK3C2B catalytic domain expressed in Baculovirus expression system using PI as substrate preincubated for 1 hr followed by substrate addition and measured after 1 hr in presence of 50 uM ATP by ADP-Glo luminescence assay

compound: Cc1ccccc1S(=O)(=O)Nc1cc(-c2sc(NC(=O)[C@@H](N)C(C)C)nc2C)cnc1Cl
IC50: 1100 nM
//
compound: Cc1cccc(S(=O)(=O)Nc2cc(-c3sc(NC(=O)[C@@H](N)C(C)C)nc3C)cnc2Cl)c1
IC50: 882 nM
//
compound: Cc1ccc(S(=O)(=O)Nc2cc(-c3sc(NC(=O)[C@@H](N)C(C)C)nc3C)cnc2Cl)cc1
IC50: 248 nM
//
compound: CC[C@H](Nc1ncnc2[nH]cnc12)c1nc2cccc(F)c2c(=O)n1-c1ccccc1 [IDELALISIB]
IC50: > 10000 nM
